System: SW-620
Assay Text: NCI tumour cell line growth inhibition, 48 h
Activity calls are given as the source filed them. Rule as the data show it: active = GI50 up to about 1.1 µM and inactive = higher.
Outcomes: active, inactive

- Compound: "Oc1cccnc1/C=N/OCc1ccccc1"
  Group: "inactive"
- Compound: "CC(=O)O[C@H]1C(=O)[C@@]2(C)[C@H]([C@H](OC(=O)c3ccccc3)[C@]3(O)C[C@H](OC(=O)[C@H](O)[C@@H](NC(=O)CC(C)C)c4ccccc4)C(C)=C1C3(C)C)[C@]1(OC(C)=O)CO[C@@H]1C[C@@H]2O"
  Group: "active"
- Compound: "C/C(=N\\N=C(/S)N1CC2CCC(CC2)C1)c1cccc[n+]1[O-]"
  Group: "inactive"
- Compound: "CSc1nc2[nH]c(=O)c(C)nc2c(=O)[nH]1"
  Group: "inactive"
- Compound: "CC(=O)OCC1OC(n2c(-c3ccc(C)cc3)cc(-c3ccco3)c(C#N)c2=S)C(OC(C)=O)C(OC(C)=O)C1OC(C)=O (centres undefined)"
  Group: "inactive"
- Compound: "CC(=O)NCCC1CN(C(=O)/C=C\\I)c2ccccc21 (centres undefined)"
  Group: "inactive"
- Compound: "O=C(NCC#CCO)C(F)(F)F"
  Group: "inactive"
- Compound: "CCC(=O)O[C@H]1CC[C@H]2[C@@H]3CCC4=C/C(=N/OC(=O)c5cccc6c(=O)c7ccccc7[nH]c56)CC[C@]4(C)[C@H]3CC[C@]12C"
  Group: "inactive"
- Compound: "CC1C(=O)CCC1C(Sc1ccccc1)(Sc1ccccc1)Sc1ccccc1 (centres undefined)"
  Group: "inactive"

====

Test system: MOLT-4
Assay Text: NCI tumour cell line growth inhibition, 48 h
Activity calls are given as the source filed them. Rule as the data show it: active = GI50 up to about 1.1 µM and inactive = higher. Where a SMILES comes first, the peptide text is derived from it. The star is where a group is joined. Fmoc = O=C(OCC1c2ccccc2-c2ccccc21)*; OBn = c1ccc(CO*)cc1; tBu = CC(C)(C)*
In this section, each of the compounds is paired with its reported GI50.

- Compound: "CN(CCCNC(=O)c1cn(C)c2c1Cc1ccccc1-2)CCCNC(=O)c1cn(C)c2c1Cc1ccccc1-2"
  GI50: "3.35 µM (inactive)"
- Compound: "CC(C)C1COC(c2ccc3ccccc3c2-c2c(O[Si](C)(C)C(C)(C)C)ccc3ccccc23)=N1 (stereo not given)"
  GI50: "15.6 µM (inactive)"
- Compound: "CC(C)c1nc(Cl)nc(Cl)c1Cl"
  GI50: "0.0284 µM (active)"
- Compound: "COC(=O)c1c(OC(C)=O)ccc2c1c1c(OC(C)=O)c3ccccc3c(OC(C)=O)c1n2Cc1ccccc1"
  GI50: "7.46 µM (inactive)"
- Compound: "CC(N/N=C(\\S)N1CCCC1)c1cccnn1 (stereo not given)"
  GI50: "0.351 µM (active)"
- Compound: "Cc1ccc(C)c(NC(=O)c2cccc([N+](=O)[O-])c2O)c1"
  GI50: "20.3 µM (inactive)"
- Compound: "C(=N\\N=C1NCCN1)/c1ccc2ccccc2c1"
  GI50: "10.2 µM (inactive)"
- Compound: "CC/C(Cl)=N\\OC(=O)Nc1ccc(F)c([N+](=O)[O-])c1"
  GI50: "2.72 µM (inactive)"
- Compound: "COc1ccc(C(=O)O)c2c(=O)c3cccnc3[nH]c12"
  GI50: "> 100 µM (inactive)"
- Compound: "O=c1[nH]nc(-c2ccccc2)n1-c1ccncc1"
  GI50: "> 100 µM (inactive)"
- Compound: "Cc1cc(=O)[nH]c2cc(NC(=O)C(CCCNC(=N)N)NC(=O)OCc3ccccc3)ccc12 (stereo not given)"
  GI50: "> 100 µM (inactive)"
- Compound: "CCCNc1[nH]c(C(=O)c2ccccc2)c(N)c1C(=S)Nc1ccccc1"
  GI50: "> 100 µM (inactive)"
- Compound: "COC(=O)/N=[N+](\\[O-])C(c1ccc(Cl)cc1)c1ccc(Cl)cc1"
  GI50: "39.7 µM (inactive)"
- Compound: "Nc1c(Cl)ncnc1NCCCCCCCCCCCCNc1ncnc(Cl)c1N"
  GI50: "0.167 µM (active)"
- Compound: "C/C(=N\\c1ccc(Cl)c(Cl)c1)c1ccncc1"
  GI50: "> 100 µM (inactive)"
- Compound: "COc1c2c(cc3c1C(=O)Cc1ccc4c(c1CN(C)CC3)OCO4)OCO2"
  GI50: "36.7 µM (inactive)"
- Compound: "COc1cc(-c2coc3c(OC)c(OC4OC(CO)C(O)C(O)C4O)c(OC)cc3c2=O)cc(OC)c1C (stereo not given)"
  GI50: "5.9 µM (inactive)"
- Compound: "CC(OC(C)(C)C)C(NC(=O)OCC1c2ccccc2-c2ccccc21)C(=O)NC(Cc1ccccc1)C(=O)OCc1ccccc1 (stereo not given) (Fmoc-Thr(tBu)-Phe-OBn; configuration not given here)"
  GI50: "> 61.9 µM (inactive)"
- Compound: "C/C(=C1/N=C(c2cc([N+](=O)[O-])ccc2Cl)N(c2ccc(Br)cc2)C1=O)c1cc2ccccc2oc1=O"
  GI50: "20.2 µM (inactive)"
- Compound: "N=C(N)NCCN1CC2CCC(CC2)C1"
  GI50: "> 100 µM (inactive)"
- Compound: "O=c1[nH]c(N/N=C\\C(O)C(O)C(O)CO)nc2ccccc12 (stereo not given)"
  GI50: "> 100 µM (inactive)"
- Compound: "NS(=O)(=O)c1ccc(NNC(=O)c2cccc3c(=O)c4ccccc4[nH]c23)cc1"
  GI50: "42.2 µM (inactive)"
- Compound: "c1ccc(SCCc2ccncc2)cc1"
  GI50: "17.7 µM (inactive)"
- Compound: "C=C(C)[C@@H]1CCC2=C[C@H](C/C(C)=C\\C3=CC(C)=C(O3)[C@H]1O)OC2=O"
  GI50: "> 100 µM (inactive)"
- Compound: "[O-][n+]1c2cc(CN3CCOCC3)c(CN3CCOCC3)cc2[n+]([O-])c2c(O)cccc21"
  GI50: "0.627 µM (active)"
- Compound: "O=C(/C=C/c1ccc(OCCCOc2ccc(/C=C/C(=O)c3ccccc3)cc2)cc1)c1ccccc1"
  GI50: "> 100 µM (inactive)"
- Compound: "CCCCOCCOC1=CC(=O)c2c(O)ccc(O)c2C1=O"
  GI50: "1.28 µM (inactive)"
- Compound: "CC(=O)O[C@@H]1[C@H]2O[C@H]2[C@H]2O[C@@]2(COC(=O)c2ccccc2)[C@H]1OC(C)=O"
  GI50: "32.1 µM (inactive)"
- Compound: "Cc1ccc(-c2cc(O)c3nc4ccccc4n3c2)cc1"
  GI50: "> 100 µM (inactive)"
- Compound: "CCC(O)CC1OC2(CCC1C)CC1OC(=O)/C=C\\C(C)(O)C(O)C(C)C(O)C(OC3CC(OC)C(O)C(C)O3)C(O)C(C)(O)CCC/C=C/C3CC(C)COC3(O)CC(O2)C1C (stereo not given)"
  GI50: "0.335 µM (active)"
- Compound: "CNC(=O)CCCNC(=O)CCCCC(=O)N(C)C"
  GI50: "89.5 µM (inactive)"
- Compound: "Cc1ccc(C)c(COCCOCn2ccc(N)nc2=O)c1"
  GI50: "> 100 µM (inactive)"
- Compound: "Cc1cc(C)c2ccc(N3CCNCC3)nc2n1"
  GI50: "> 100 µM (inactive)"
- Compound: "O=C1OC(C2Cc3ccccc3C2=O)c2ccccc21 (stereo not given)"
  GI50: "> 100 µM (inactive)"
- Compound: "CC(=O)/C=C/c1ccc(C2CC(C)=Nc3c(ccc4c3C(=O)c3ccccc3C4=O)N2)cc1 (stereo not given)"
  GI50: "> 100 µM (inactive)"
- Compound: "COc1ccc(C2Oc3ccc(Cl)cc3C=C2[N+](=O)[O-])cc1 (stereo not given)"
  GI50: "> 100 µM (inactive)"
- Compound: "Cc1ccc(/N=C2\\C(=N/c3ccc(C)cc3)N(c3ccc(C)cc3)C(=S)N2C(=O)c2ccccc2)cc1"
  GI50: "> 100 µM (inactive)"
- Compound: "CN(C)c1ccc(/C=N/c2ccc(-c3nc4ccccc4s3)cc2)cc1"
  GI50: "23.2 µM (inactive)"
- Compound: "CC[C@@H]1CC[C@@H]2[C@H](CC[C@]3(C)[C@@H](OC(C)=O)CC[C@@H]23)[C@H]1C(=O)OC"
  GI50: "19.5 µM (inactive)"
- Compound: "O=C(/C=C/c1cccc([N+](=O)[O-])c1)c1cccnc1"
  GI50: "26.4 µM (inactive)"

====

In this section, each of the compounds is paired with its reported GI50.
Test system: SK-MEL-5
Assay Text: NCI tumour cell line growth inhibition, 48 h
The source made the active and inactive calls. Cut-off read from the data, not from the text of the source: active = GI50 up to about 1.1 µM and inactive = higher. Where a SMILES comes first, the peptide text is derived from it. Bridges are numbered along the chain shown (N, C = ends). [ ]: non-standard residue; d: D form. The star is where a group is joined. ξ: configuration not given here. X28 = O=C(/C=C/C=C/C=C/C=C/C=C/C(=O)*)NC1=C(O)CCC1=O; NMeA = CN[C@@H](C)C(=O)O; ξF = NC(Cc1ccccc1)C(=O)O; ξA = CC(N)C(=O)O
Value Type: GI50

- Compound: "COP(=O)(OC)/C(=C/c1cn(C(C)=O)c2ccccc12)NC(C)=O"
  Value Type: "GI50"
  Result: "22.1 µM (inactive)"
- Compound: "CC/C(Cl)=N\\OC(=O)Nc1ccc(F)c([N+](=O)[O-])c1"
  Value Type: "GI50"
  Result: "12.4 µM (inactive)"
- Compound: "COC(=O)C1=C2SCc3ccc(cc3)CSC3=C(C(=O)OC)SC(=C(S2)S1)S3"
  Value Type: "GI50"
  Result: "> 100 µM (inactive)"
- Compound: "CC(C)Oc1c(-c2ccc(F)cc2)c(O)c2c3c1oc(=O)n3C=CC2C (stereo not given)"
  Value Type: "GI50"
  Result: "10.8 µM (inactive)"
- Compound: "CN(CCNC(=S)c1cn(C)c2c1ccc1ccccc12)CCNC(=S)c1cn(C)c2c1ccc1ccccc12"
  Value Type: "GI50"
  Result: "> 100 µM (inactive)"
- Compound: "CCc1nc2cc(/N=N/c3c(O)ccc4ccccc34)ccc2[nH]1"
  Value Type: "GI50"
  Result: "18.5 µM (inactive)"
- Compound: "O=C(NC1CCC[C@H]1OC(=O)c1ccccc1)c1ccccc1 (stereo not given in full)"
  Value Type: "GI50"
  Result: "37.2 µM (inactive)"
- Compound: "CC(=O)Nc1ccc(OCC(O)CO)cc1 (stereo not given)"
  Value Type: "GI50"
  Result: "> 100 µM (inactive)"
- Compound: "NC1=C(N2CCOCC2)C(=O)NC2=N/C(=C\\c3ccccc3)C(=O)N21"
  Value Type: "GI50"
  Result: "> 100 µM (inactive)"
- Compound: "NP(=O)(Oc1c2occc2cc2ccc(=O)oc12)N(CCCl)CCCl (stereo not given)"
  Value Type: "GI50"
  Result: "27.9 µM (inactive)"
- Compound: "CC(=O)OCC1OC(n2c(-c3ccc(C)cc3)cc(-c3ccco3)c(C#N)c2=S)C(OC(C)=O)C(OC(C)=O)C1OC(C)=O (stereo not given)"
  Value Type: "GI50"
  Result: "65.2 µM (inactive)"
- Compound: "Cc1cccc2c1C/C(=C\\c1cccc(C)c1C(=O)O)C2=O"
  Value Type: "GI50"
  Result: "71.6 µM (inactive)"
- Compound: "CC1NC(=O)[C@H](C)N(C)C(=O)[C@@H]2CCCN2C(=O)[C@@H](NC(=O)C(Cc2ccccc2)NC(=O)/C=C/C=C/C=C/C=C/C=C/C(=O)NC2=C(O)CCC2=O)COC(=O)[C@@H]2CCCN2C1=O (stereo not given in full) (X28-[ξF]SP[NMeA][ξA]P; ester 2-C)"
  Value Type: "GI50"
  Result: "> 100 µM (inactive)"
- Compound: "Cc1ccccc1OC(C)C(=O)NN1C(=O)CSC1c1ccccc1 (stereo not given)"
  Value Type: "GI50"
  Result: "32.2 µM (inactive)"
- Compound: "CC1(C)O[C@@H]([C@H](O)CO)[C@H](O)[C@@H](C2SCCCS2)O1"
  Value Type: "GI50"
  Result: "> 100 µM (inactive)"
- Compound: "O=C1/C(=C/c2cccs2)NC(=S)N1CN1CCCCC1"
  Value Type: "GI50"
  Result: "35.3 µM (inactive)"
- Compound: "COC1=CC(=O)C2C(C1=O)[C@@H]1c3ccccc3OC[C@H]21 (stereo not given in full)"
  Value Type: "GI50"
  Result: "> 100 µM (inactive)"
- Compound: "O=c1/c(=C/c2ccccn2)sc2nc3cc4c(cc3n12)OCCO4"
  Value Type: "GI50"
  Result: "> 100 µM (inactive)"
- Compound: "O=c1cc(N=P(c2ccccc2)(c2ccccc2)c2ccccc2)n(-c2ccccc2)c(=O)n1-c1ccccc1"
  Value Type: "GI50"
  Result: "10.3 µM (inactive)"
- Compound: "CC(=O)OC1(C#N)CC2OC1C1NC21 (stereo not given)"
  Value Type: "GI50"
  Result: "> 100 µM (inactive)"
